# System: hsa-mir-221 loop
# assay_comment: normalised indicator fluorescence (fraction of RNA + indicator signal without compound); higher = less displacement of indicator (weaker competition)
# experimental_conditions: compound concentration: 5 uM; 30 min; indicator: TO-PRO-3 0.5 uM; RNA concentration: 0.5 uM
measure_name: normalised indicator fluorescence

Solved cases below.
Oc1cc(O)c2c(c1)O[C@H](c1ccc(O)c(O)c1)[C@@H](O)C2 [(+)-Catechin Hydrate]; 1.13
Oc1ccc(OC2CCCCO2)cc1 (centres undefined) [Deoxyarbutin]; 1.1
Cc1c(C)c2c(c(C)c1O)CCC(C)(C(=O)O)O2 (centres undefined) [Trolox]; 1.12
Nc1ncnc2c1ncn2[C@@H]1O[C@H](CO)[C@@H](O)[C@@H]1O [Vidarabine]; 1.04

Asked: Report normalised indicator fluorescence for Cc1cccc(CC(=O)N2CCc3c2ccc(-c2cn(C)c4ncnc(N)c24)c3F)n1 please.
Given back: 1.01

Asked: Report normalised indicator fluorescence for COc1ccc(C(=C2C(=O)Nc3ccccc32)c2ccc(OC)cc2)cc1 please.
Given back: 1.09

Asked: Report normalised indicator fluorescence for CC1(C)OC(=O)C=C[C@]2(C)[C@H]3CC[C@@]4(C)[C@H](c5ccoc5)OC(=O)[C@H]5O[C@]54[C@]3(C)C(=O)C[C@@H]12 [Obacunone] please.
Given back: 1.07

Asked: Report normalised indicator fluorescence for NNC(=O)c1ccncc1 [Isoniazid] please.
Given back: 1.01

Asked: Report normalised indicator fluorescence for Oc1cc(O)c2c(c1)O[C@H](c1ccc(O)c(O)c1)[C@@H](O)C2 [Cianidanol] please.
Given back: 1.07

Asked: Report normalised indicator fluorescence for CN1CCN(c2nc(C3=C(c4c[nH]c5ccccc45)C(=O)NC3=O)c3ccccc3n2)CC1 [Sotrastaurin] please.
Given back: 0.999

Asked: Report normalised indicator fluorescence for OC[C@H]1O[C@@H](Oc2ccc(O)cc2)[C@H](O)[C@@H](O)[C@@H]1O [Arbutin] please.
Given back: 1.04

Asked: Report normalised indicator fluorescence for CCOc1cc(C(=O)N2CCC(N3CCN(C)CC3)CC2)ccc1Nc1ncc2c(n1)N(C1CCCC1)c1ccccc1C(=O)N2C please.
Given back: 1.01

Asked: Report normalised indicator fluorescence for O=c1ncn2nc(Sc3ccc(F)cc3F)ccc2c1-c1c(Cl)cccc1Cl [Neflamapimod] please.
Given back: 1.22

Asked: Report normalised indicator fluorescence for N#CC(c1ccnc(OCc2ccc(CN3CCOCC3)cc2)n1)c1nc2ccccc2s1 (centres undefined) please.
Given back: 0.837

Asked: Report normalised indicator fluorescence for O=C(O)C(O)Cc1ccc(O)c(O)c1 (centres undefined) [Sodium Danshensu] please.
Given back: 1.05

Asked: Report normalised indicator fluorescence for O=C(Nc1nc2ccc(NC(=O)C34CC5CC(CC(C5)C3)C4)cc2s1)c1ccccc1 please.
Given back: 1.05

Asked: Report normalised indicator fluorescence for O=C(O)CCc1ccc(O)cc1O [Hydroumbellic acid] please.
Given back: 1.16

Asked: Report normalised indicator fluorescence for Cn1cc(-c2ccc3c(c2)CCN3C(=O)Cc2cccc(C(F)(F)F)c2)c2c(N)ncnc21 please.
Given back: 1.03

Asked: Report normalised indicator fluorescence for C[S+]([O-])c1ccc(-c2nc(-c3ccc(F)cc3)c(-c3ccncc3)[nH]2)cc1 (centres undefined) please.
Given back: 1.05
